Where do the numbers come from? From patent US8030300B2.

Give measured Ki for each item. Keep answers brief.
target: α2β2 nAChR subtype (Rattus norvegicus, UniProt P12389+P12390); construct: expressed in transfected cells; experiment: biochemical; assay type: binding; settings: Table 3; mean ± SEM of 3 (nicotine, 1: 3 to 6) independent measurements; read-out: Ki α2β2
Sequence (P12390 25-500): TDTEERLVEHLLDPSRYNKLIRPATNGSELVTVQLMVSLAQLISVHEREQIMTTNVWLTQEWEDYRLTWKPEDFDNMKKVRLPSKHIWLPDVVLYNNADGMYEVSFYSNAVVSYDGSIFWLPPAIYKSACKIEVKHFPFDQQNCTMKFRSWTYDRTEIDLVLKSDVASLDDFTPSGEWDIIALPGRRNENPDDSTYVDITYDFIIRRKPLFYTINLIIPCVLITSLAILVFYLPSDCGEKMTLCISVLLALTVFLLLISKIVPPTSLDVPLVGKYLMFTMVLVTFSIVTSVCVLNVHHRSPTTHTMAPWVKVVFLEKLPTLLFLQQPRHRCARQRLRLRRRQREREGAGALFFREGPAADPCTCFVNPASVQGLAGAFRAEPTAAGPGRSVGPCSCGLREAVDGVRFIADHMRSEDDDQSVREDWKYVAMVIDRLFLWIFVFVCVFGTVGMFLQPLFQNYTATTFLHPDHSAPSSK
Sequence (P12389 28-511): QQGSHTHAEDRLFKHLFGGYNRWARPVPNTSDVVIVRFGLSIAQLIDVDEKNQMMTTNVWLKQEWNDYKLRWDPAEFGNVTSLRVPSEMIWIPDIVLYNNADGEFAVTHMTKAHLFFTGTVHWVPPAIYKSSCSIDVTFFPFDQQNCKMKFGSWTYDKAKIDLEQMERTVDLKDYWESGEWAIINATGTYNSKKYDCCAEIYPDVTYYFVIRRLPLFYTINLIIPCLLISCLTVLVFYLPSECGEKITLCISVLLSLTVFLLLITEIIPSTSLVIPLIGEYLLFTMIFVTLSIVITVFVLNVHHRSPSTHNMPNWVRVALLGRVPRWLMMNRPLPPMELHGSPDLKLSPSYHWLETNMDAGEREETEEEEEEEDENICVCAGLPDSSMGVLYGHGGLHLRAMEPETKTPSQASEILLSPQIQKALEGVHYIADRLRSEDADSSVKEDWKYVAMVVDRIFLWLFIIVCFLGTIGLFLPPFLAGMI
Use nM as the unit, but write only the number.

Problem: Which Ki value is on record for Clc1ccc2c(n1)CCC1C3CCC(N3)C21 (stereo not drawn) [Ligand 37b] ?
Result: 59

Problem: Now give it for Clc1cc2c(cn1)C1(CC2)CC2CCC1N2 (stereo not drawn) [Ligand 58a] too.
Result: 12600

Problem: Please give the result for Clc1cc2c(cn1)C1C3CCC(N3)C1CC2 (stereo not drawn) [Ligand 37a] too.
Result: 290
